All values here come from paper PMC11642070.

System: human OCTN1 (Homo sapiens)
Construct: made in house; host or cells: E. coli Rosetta(DE3)pLysS
Sequence (Q9H015 whole entry): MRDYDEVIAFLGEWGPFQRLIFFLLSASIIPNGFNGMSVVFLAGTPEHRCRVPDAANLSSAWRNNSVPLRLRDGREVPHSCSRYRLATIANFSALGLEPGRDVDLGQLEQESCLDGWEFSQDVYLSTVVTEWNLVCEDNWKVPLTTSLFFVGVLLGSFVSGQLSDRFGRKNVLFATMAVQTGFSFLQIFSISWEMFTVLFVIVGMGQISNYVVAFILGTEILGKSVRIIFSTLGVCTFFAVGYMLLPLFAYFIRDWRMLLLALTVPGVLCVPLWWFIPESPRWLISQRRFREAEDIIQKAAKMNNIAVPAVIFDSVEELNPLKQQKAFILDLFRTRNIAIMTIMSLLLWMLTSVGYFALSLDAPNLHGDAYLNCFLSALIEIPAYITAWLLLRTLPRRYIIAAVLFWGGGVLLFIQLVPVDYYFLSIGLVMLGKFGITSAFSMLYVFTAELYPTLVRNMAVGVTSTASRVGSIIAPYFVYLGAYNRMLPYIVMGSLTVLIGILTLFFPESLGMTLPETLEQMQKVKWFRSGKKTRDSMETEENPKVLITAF
Type: biochemical
Assay Context: OCTN1 WT proteoliposomes, 0.1 mM [14C]-TEA, 60 min; read-out: IC50 (µM) on [14C]-TEA uptake
Measured IC50 values are reported for all entries that follow.

{"columns": ["Molecule", "System", "IC50 (µM)"],
 "data": [
  ["[Cl][Cd][Cl] [CdCl2, Cadmium chloride]", "human OCTN1 (Homo sapiens)", 56],
  ["[Cl-].[Cl-].[Zn+2] [ZnCl2, Zinc chloride]", "human OCTN1 (Homo sapiens)", 57],
  ["[Cl][Cr][Cl] [CrCl2, Chromium (II) chloride]", "human OCTN1 (Homo sapiens)", 170],
  ["[Cl][Hg][Cl] [HgCl2, Mercury (II) chloride]", "human OCTN1 (Homo sapiens)", 121],
  ["O=[N+]([O-])[O-].O=[N+]([O-])[O-].[Pb+2] [Pb(NO3)2, Lead nitrate]", "human OCTN1 (Homo sapiens)", 90]
]}
